# subject of test: GST-Ap-NF-kB RHD (Exaiptasia pallida (Aiptasia), UniProt A0A913YAJ5 2-422)
# Sequence: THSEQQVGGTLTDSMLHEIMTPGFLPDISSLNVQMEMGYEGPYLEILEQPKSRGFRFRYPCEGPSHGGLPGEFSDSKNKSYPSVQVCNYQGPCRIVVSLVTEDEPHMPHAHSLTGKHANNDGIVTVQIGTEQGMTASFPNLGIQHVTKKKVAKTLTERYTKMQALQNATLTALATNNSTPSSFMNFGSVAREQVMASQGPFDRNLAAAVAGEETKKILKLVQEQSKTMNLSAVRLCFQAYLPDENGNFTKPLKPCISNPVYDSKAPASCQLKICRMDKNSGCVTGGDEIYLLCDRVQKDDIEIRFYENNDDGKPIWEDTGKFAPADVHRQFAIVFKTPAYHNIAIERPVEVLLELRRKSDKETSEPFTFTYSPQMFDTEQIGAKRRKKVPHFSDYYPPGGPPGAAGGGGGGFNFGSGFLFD
# method summary: protein-binding microarray (PBM); PBM: ~300 nM protein, 6 mM HEPES pH 7.8, 80 mM KCl, 0.5 mM EDTA, 0.5 mM EGTA, 6% glycerol, 35 ng/ul poly-dIdC, 1% milk, 1 h, room temperature; high values mean tight binding
# stated conditions: dsDNA, one strand shown
Hi! Just check whether binding signal is below 6 z-score. Below gives true, equal or above gives false.

* CCGATTAACATCAATCTTCCCCCTGATGTTAATCGGGTCTTGATTCGCTTGACGCTGCTG | true
* CCGATTAACATCAGGGGAGTATATGATGTTAATCGGGTCTTGATTCGCTTGACGCTGCTG | true
* CCGATTAACATCAGGGATTCCCCTGATGTTAATCGGGTCTTGATTCGCTTGACGCTGCTG | false
* CCGATTAACATCATACTTCCCCATGATGTTAATCGGGTCTTGATTCGCTTGACGCTGCTG | true

Prompt: I'd appreciate it if you could check whether CCGATTAACATCAAGGGGGGTTATGATGTTAATCGGGTCTTGATTCGCTTGACGCTGCTG has binding signal smaller than 6 z-score.
Response: true

Prompt: I'd appreciate it if you could check whether CCGATTAACATCAATAAATCCCCTGATGTTAATCGGGTCTTGATTCGCTTGACGCTGCTG has binding signal smaller than 6 z-score.
Response: false

Prompt: I'd appreciate it if you could check whether CCGATTAACATCAGGAATCCCCCTGATGTTAATCGGGTCTTGATTCGCTTGACGCTGCTG has binding signal smaller than 6 z-score.
Response: false

Prompt: I'd appreciate it if you could check whether CCGATTAACATCAAACAGTCCCCTGATGTTAATCGGGTCTTGATTCGCTTGACGCTGCTG has binding signal smaller than 6 z-score.
Response: true

Prompt: I'd appreciate it if you could check whether CCGATTAACATCAGGGGAGACCCTGATGTTAATCGGGTCTTGATTCGCTTGACGCTGCTG has binding signal smaller than 6 z-score.
Response: false

###

# subject of test: GST-Aq-NF-kB (Amphimedon queenslandica, UniProt A9Y5G7 2-389)
# Sequence: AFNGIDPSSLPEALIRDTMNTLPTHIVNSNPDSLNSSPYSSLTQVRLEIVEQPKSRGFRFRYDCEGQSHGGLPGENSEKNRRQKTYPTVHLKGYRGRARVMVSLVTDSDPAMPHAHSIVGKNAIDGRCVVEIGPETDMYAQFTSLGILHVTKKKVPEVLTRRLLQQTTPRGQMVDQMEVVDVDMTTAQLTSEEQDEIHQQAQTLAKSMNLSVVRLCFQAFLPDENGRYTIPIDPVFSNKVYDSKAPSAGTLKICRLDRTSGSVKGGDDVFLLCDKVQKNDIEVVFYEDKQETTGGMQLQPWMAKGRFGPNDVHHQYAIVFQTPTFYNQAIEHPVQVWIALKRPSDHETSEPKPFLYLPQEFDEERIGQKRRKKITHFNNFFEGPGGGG
# method summary: protein-binding microarray (PBM); PBM: ~300 nM protein, 6 mM HEPES pH 7.8, 80 mM KCl, 0.5 mM EDTA, 0.5 mM EGTA, 6% glycerol, 35 ng/ul poly-dIdC, 1% milk, 1 h, room temperature; Ap Aiptasia and Nv Nematostella (sea anemones) / Co Capsaspora / Aq Amphimedon (sponge) / Dm Drosophila / Hu human; RHD is the Rel homology domain; high values mean tight binding
# stated conditions: dsDNA, one strand shown
value type: binding signal (z-score)
Numbers only, in z-score.

In the examples that follow, each entry is paired with its recorded binding signal.
- CCGATTAACATCAATTCCCAAGGTGATGTTAATCGGGTCTTGATTCGCTTGACGCTGCTG: 1.55
- CCGATTAACATCACGCATCCCCCTGATGTTAATCGGGTCTTGATTCGCTTGACGCTGCTG: 4.33
- CCGATTAACATCAGGGAAAGATATGATGTTAATCGGGTCTTGATTCGCTTGACGCTGCTG: 5.22

# batch size: 2; output binding signal per entry
1. CCGATTAACATCAGGGGATGTTATGATGTTAATCGGGTCTTGATTCGCTTGACGCTGCTG
2. CCGATTAACATCACGGCAATCCCTGATGTTAATCGGGTCTTGATTCGCTTGACGCTGCTG

Response:
1. 5.53
2. 2.66
